Assay: self-splicing fitness, log relative to wild type (ln ratio); higher = more splicing; Tetrahymena group I intron in knt gene, E. coli kanamycin selection, DiMSum; sequences stand for … in CUCUCU…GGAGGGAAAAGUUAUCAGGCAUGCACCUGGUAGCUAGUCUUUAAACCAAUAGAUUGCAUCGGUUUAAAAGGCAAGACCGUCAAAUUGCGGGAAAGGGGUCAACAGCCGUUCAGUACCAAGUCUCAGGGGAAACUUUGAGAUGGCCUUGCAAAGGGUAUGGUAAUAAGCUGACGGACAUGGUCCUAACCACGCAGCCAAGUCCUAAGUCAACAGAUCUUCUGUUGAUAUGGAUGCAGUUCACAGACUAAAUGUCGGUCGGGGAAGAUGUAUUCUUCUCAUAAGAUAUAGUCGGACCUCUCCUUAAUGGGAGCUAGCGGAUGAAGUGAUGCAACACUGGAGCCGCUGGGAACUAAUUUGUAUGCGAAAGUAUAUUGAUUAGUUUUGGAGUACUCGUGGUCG;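 note: selection with 25 µg/mL kanamycin versus none on LB agar overnight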
Settings: 37 °C
READOUT LABEL: self-splicing fitness (ln)
When you answer, write just the number.

Example cases with answers are listed next.
[[record]]
sequence_string = "UAAUAGCAAUAUUACGCCUU"
readout_label = "self-splicing fitness (ln)"
readout_value = -1

[[record]]
sequence_string = "GGUUAGCAAUAUUACGUUGG"
readout_label = "self-splicing fitness (ln)"
readout_value = -1.72

[[record]]
sequence_string = "GGAAAGCAAUAUUACGCACU"
readout_label = "self-splicing fitness (ln)"
readout_value = -1.57

[[record]]
sequence_string = "GUUAAGCAAUAUUACGAAUC"
readout_label = "self-splicing fitness (ln)"
readout_value = -0.464

[[record]]
sequence_string = "GUUAAGCAAUAUUACGAAAU"
readout_label = "self-splicing fitness (ln)"
readout_value = -2.16

[[record]]
sequence_string = "CCGGAGCAAUAUUACGCUCA"
readout_label = "self-splicing fitness (ln)"
readout_value = -2.71

[[record]]
sequence_string = "CCUGAGCAAUAUUACGGUCC"
readout_label = "self-splicing fitness (ln)"
readout_value = -1.22

[[record]]
sequence_string = "CUGGAGCAAUAUUACGUAAC"
readout_label = "self-splicing fitness (ln)"
readout_value = -1.86

[[record]]
sequence_string = "CGGUAGCAAUAUUACGGCAA"
readout_label = "self-splicing fitness (ln)"
readout_value = -2.52

[[record]]
sequence_string = "AGCCAGCAAUAUUACGCAAC"
readout_label = "self-splicing fitness (ln)"
readout_value = -1.4


Query: # self-splicing fitness (ln) lookup, item ACCCAGCAAUAUUACGACCA
Response: -0.703

Query: # self-splicing fitness (ln) lookup, item UUGGAGCAAUAUUACGGGCC
Response: -1.33

Query: # self-splicing fitness (ln) lookup, item UUAGAGCAAUAUUACGGCCC
Response: -1.52

Query: # self-splicing fitness (ln) lookup, item UCUUAGCAAUAUUACGCACG
Response: -1.47

Query: # self-splicing fitness (ln) lookup, item CGGUAGCAAUAUUACGGUCC
Response: -0.321

Query: # self-splicing fitness (ln) lookup, item UUAUAGCAAUAUUACGCAAU
Response: -0.556

Query: # self-splicing fitness (ln) lookup, item AUUAAGCAAUAUUACGCGGG
Response: -1.72

Query: # self-splicing fitness (ln) lookup, item UACCAGCAAUAUUACGUAUC
Response: -0.118

Query: # self-splicing fitness (ln) lookup, item ACAAAGCAAUAUUACGGCGG
Response: -0.154

Query: # self-splicing fitness (ln) lookup, item CUUCAGCAAUAUUACGAGCU
Response: -3.41

###

Assay: self-splicing fitness, log relative to wild type (ln ratio); higher = more splicing; Tetrahymena group I intron in knt gene, E. coli kanamycin selection, DiMSum; sequences stand for … in CUCUCU…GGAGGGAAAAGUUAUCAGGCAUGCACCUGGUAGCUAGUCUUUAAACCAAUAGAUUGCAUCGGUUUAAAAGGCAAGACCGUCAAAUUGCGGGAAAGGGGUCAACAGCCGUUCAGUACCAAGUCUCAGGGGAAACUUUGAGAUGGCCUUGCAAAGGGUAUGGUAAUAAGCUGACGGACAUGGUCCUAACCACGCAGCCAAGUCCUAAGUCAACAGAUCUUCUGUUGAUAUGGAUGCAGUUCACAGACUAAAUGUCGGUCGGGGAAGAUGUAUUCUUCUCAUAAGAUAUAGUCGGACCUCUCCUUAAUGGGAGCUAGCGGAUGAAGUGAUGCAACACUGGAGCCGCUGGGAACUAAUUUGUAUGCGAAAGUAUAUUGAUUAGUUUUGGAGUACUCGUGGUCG
Details: 30 °C
READOUT LABEL: self-splicing fitness (ln)
When you answer, write just the number.

Example cases with answers are listed next.
[[record]]
sequence_string = "UGAUAGCAAUAUUACGCCUC"
readout_label = "self-splicing fitness (ln)"
readout_value = -3.09

[[record]]
sequence_string = "UAAGAGCAAUAUUACGGUUC"
readout_label = "self-splicing fitness (ln)"
readout_value = -2.19

[[record]]
sequence_string = "CAACAGCAAUAUUACGAAGA"
readout_label = "self-splicing fitness (ln)"
readout_value = -2.55


Query: # self-splicing fitness (ln) lookup, item UUCUAGCAAUAUUACGCAAU
Response: -2.27

Query: # self-splicing fitness (ln) lookup, item UAUCAGCAAUAUUACGGCUG
Response: -3.56

Query: # self-splicing fitness (ln) lookup, item UAAUAGCAAUAUUACGCCUG
Response: -0.203

Query: # self-splicing fitness (ln) lookup, item ACACAGCAAUAUUACGUGUC
Response: -3.6

Query: # self-splicing fitness (ln) lookup, item AACAAGCAAUAUUACGCUUU
Response: -3.18

Query: # self-splicing fitness (ln) lookup, item GGUUAGCAAUAUUACGGUUA
Response: -1.23

Query: # self-splicing fitness (ln) lookup, item GCCUAGCAAUAUUACGCAGA
Response: -3.96

Query: # self-splicing fitness (ln) lookup, item GUAUAGCAAUAUUACGAUAA
Response: -0.869

Query: # self-splicing fitness (ln) lookup, item CGGGAGCAAUAUUACGCCGG
Response: -2.87

Query: # self-splicing fitness (ln) lookup, item CUACAGCAAUAUUACGGAUC
Response: -4.11

Query: # self-splicing fitness (ln) lookup, item AACCAGCAAUAUUACGAUUC
Response: -1.63

Query: # self-splicing fitness (ln) lookup, item UAGCAGCAAUAUUACGCCUA
Response: -0.551

Query: # self-splicing fitness (ln) lookup, item AGUGAGCAAUAUUACGAGGC
Response: -3.83

Query: # self-splicing fitness (ln) lookup, item GUAAAGCAAUAUUACGCACG
Response: -0.557

Query: # self-splicing fitness (ln) lookup, item UGUUAGCAAUAUUACGCACA
Response: -1.21

Query: # self-splicing fitness (ln) lookup, item GAGAAGCAAUAUUACGACCC
Response: -1.83

Query: # self-splicing fitness (ln) lookup, item ACCUAGCAAUAUUACGUAAG
Response: -1.53

Query: # self-splicing fitness (ln) lookup, item GGCGAGCAAUAUUACGUACC
Response: -1.44

###

self-splicing fitness (ln) listing for selected sequences.
Test: self-splicing fitness, log relative to wild type (ln ratio); higher = more splicing; Tetrahymena group I intron in knt gene, E. coli kanamycin selection, DiMSum; sequences stand for … in CUCUCU…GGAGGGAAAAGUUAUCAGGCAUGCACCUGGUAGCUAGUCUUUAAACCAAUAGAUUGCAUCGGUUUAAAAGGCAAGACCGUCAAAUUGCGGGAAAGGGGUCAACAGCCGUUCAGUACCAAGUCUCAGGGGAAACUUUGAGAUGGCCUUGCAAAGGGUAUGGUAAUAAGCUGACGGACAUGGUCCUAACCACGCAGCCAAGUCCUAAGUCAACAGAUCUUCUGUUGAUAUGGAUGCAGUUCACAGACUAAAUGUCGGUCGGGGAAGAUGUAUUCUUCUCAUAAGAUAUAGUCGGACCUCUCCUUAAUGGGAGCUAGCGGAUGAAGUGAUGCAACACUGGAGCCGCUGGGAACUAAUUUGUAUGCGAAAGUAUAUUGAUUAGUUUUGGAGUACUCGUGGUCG
Conditions: 37 °C
When you answer, write just the number.

[[record]]
sequence_string = "GUGAAGCAAUAUUACGGUCG"
readout_label = "self-splicing fitness (ln)"
readout_value = -0.0595

[[record]]
sequence_string = "AAAGAGCAAUAUUACGACCG"
readout_label = "self-splicing fitness (ln)"
readout_value = -2.5

[[record]]
sequence_string = "UGAUAGCAAUAUUACGGCCG"
readout_label = "self-splicing fitness (ln)"
readout_value = 0.324

[[record]]
sequence_string = "CAGAAGCAAUAUUACGGUUG"
readout_label = "self-splicing fitness (ln)"
readout_value = -1.08

[[record]]
sequence_string = "GUUUAGCAAUAUUACGUGGU"
readout_label = "self-splicing fitness (ln)"
readout_value = -1.23


Query: # self-splicing fitness (ln) lookup, item GAGAAGCAAUAUUACGGGCG
Response: -0.609

Query: # self-splicing fitness (ln) lookup, item GAGUAGCAAUAUUACGACCA
Response: 0.176

Query: # self-splicing fitness (ln) lookup, item UCGCAGCAAUAUUACGGCCG
Response: -0.522

Query: # self-splicing fitness (ln) lookup, item AUGGAGCAAUAUUACGGGAG
Response: -2.82

Query: # self-splicing fitness (ln) lookup, item CGUAAGCAAUAUUACGGCGC
Response: -2.2

Sourced from the supplement of paper PMC7877785
